# System: N87 (human gastric cancer cell NCI-N87)
# Procedure Summary: In vitro proliferation inhibition assay of cell lines (CellTiter-Glo), N87
# Type: cell-based
# Measurement Context: N87 cells, 72 hours
Recorded Endpoint: IC50 (nM)

A = Cc1cc(Nc2c(C#N)cnc3ccc(NC(=O)/C=C/[C@H]4CCCN4C)cc23)ccc1Oc1cnc2c(cnn2C)c1
B = C=CC(=O)N[C@H]1CCCN(c2ccc3ncnc(Nc4ccc(Oc5cc6nncn6cn5)c(C)c4)c3c2)C1
Parameter metric = IC50. Return the lower-valued option from A and B . Could you answer with the label of the item you picked? B

---

# Test Target: CYP3A4 (Homo sapiens, UniProt P08684)
# Construct: A system of 100 μL human liver microsomes; from tissue; host or cells: human liver microsomes
# Sequence (P08684 whole entry): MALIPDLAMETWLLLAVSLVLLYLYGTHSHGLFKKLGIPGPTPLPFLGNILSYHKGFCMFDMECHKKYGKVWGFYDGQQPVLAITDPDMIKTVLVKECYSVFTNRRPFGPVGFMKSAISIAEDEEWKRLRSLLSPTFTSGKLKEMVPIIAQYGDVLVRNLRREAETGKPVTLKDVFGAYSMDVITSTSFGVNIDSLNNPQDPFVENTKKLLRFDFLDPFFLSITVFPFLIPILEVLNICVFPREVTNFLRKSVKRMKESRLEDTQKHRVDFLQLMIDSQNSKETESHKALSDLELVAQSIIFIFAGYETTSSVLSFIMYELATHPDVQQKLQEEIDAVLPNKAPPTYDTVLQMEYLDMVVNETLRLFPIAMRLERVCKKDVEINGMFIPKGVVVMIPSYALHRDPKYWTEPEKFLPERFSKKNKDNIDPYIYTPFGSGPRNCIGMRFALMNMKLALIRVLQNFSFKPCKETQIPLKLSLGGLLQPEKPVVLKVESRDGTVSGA
# Procedure Summary: Direct inhibition (DI) of CYP3A4 in human liver microsomes
# Assay type: in vitro ADME
# Measurement Context: human liver microsomes 0.2 mg/mL, 10 μM compound, probe Testosterone, read-out: Direct inhibition (DI) 3A4 (testosterone)
Recorded Endpoint: inhibition at 20 min, 10 µM (%)

Below, each entry is followed by its recorded inhibition at 20 min, 10 µM result.
C=C(F)C(=O)N1CC=C(c2ccc3ncnc(Nc4ccc(Oc5cc6nncn6cn5)c(C)c4)c3c2)CC1 = 80
CCOc1cc2ncnc(Nc3ccc(Oc4ccn5ncnc5c4)c(C)c3)c2cc1NC(=O)/C(F)=C\[C@@H]1CCCN1C = 32
Cc1cc(Nc2ncnc3ccc(NC(=O)/C=C/[C@H]4CCCN4C)cc23)ccc1Oc1ccn2ncnc2n1 = 4
CCOc1cc2ncnc(Nc3ccc(Oc4cc5nncn5cn4)c(C)c3)c2cc1NC(=O)/C=C/[C@H]1CCCN1C = 23
Cc1cc(Nc2ncnc3ccc(NC(=O)/C=C/[C@H]4CCCN4)cc23)ccc1Oc1ccn2ncnc2c1 = 38

A = CCOc1cc2ncnc(Nc3ccc(Oc4ccn5ncnc5c4)c(C)c3)c2cc1NC(=O)/C=C/[C@H]1CCCN1
B = CCOc1cc2ncc(C#N)c(Nc3ccc(Oc4cc5nncn5cn4)c(C)c3)c2cc1NC(=O)/C=C/[C@H]1CCCN1
Parameter metric = inhibition at 20 min, 10 µM. Return the lower-valued option from A and B . Could you answer with the label of the item you picked? B
